target: Heat shock factor protein 1 (Mus musculus, UniProt P38532); assay: decrease of HSF1-responsive luciferase luminescence – cell-based, NIH3T3, dose retest, confirmation (AID 2382); type: functional;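 also: NIH3T3 fibroblasts with HSF1-driven luciferase reporter stressed by proteasome inhibitor MG132; luminescence from HSF1-driven luciferase expression after 8 hours of MG132 stress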
Sequence (P38532 whole entry): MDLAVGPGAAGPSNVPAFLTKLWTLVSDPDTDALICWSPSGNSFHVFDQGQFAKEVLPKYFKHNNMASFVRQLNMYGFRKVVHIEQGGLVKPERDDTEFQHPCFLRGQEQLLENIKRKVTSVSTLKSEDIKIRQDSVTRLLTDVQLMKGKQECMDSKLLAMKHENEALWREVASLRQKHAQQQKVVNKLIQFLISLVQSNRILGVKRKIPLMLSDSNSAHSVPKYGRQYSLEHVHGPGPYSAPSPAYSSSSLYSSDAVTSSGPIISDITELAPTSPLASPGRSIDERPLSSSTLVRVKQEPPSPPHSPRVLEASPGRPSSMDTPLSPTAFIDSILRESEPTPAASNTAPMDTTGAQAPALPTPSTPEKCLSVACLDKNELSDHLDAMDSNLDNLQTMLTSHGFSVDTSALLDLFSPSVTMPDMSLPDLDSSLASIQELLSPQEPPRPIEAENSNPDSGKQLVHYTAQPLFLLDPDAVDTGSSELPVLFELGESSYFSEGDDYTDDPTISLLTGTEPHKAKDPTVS
Active and inactive are the calls of the source. Rule as the data show it: actives have a measured EC50 and inactives only a lower limit.
Experimental Readout: EC50

Examples from the recorded data:
COc1ccc(/C=N/NC(=O)Nc2cccc3nsnc23)cc1OC; 9.51 µM (active)
CC(=O)c1cccc(NC(=O)CN2C(S)=NC(C)(C)CC2C)c1 (centres undefined); > 195 µM (not active)
COc1ccc(Nc2nc(Nc3ccc(OC)cc3)nc(-n3[nH]c(=O)c(C)c3C)n2)cc1; 22.3 µM (active)

Next:
The reported EC50 of the molecule `Cn1c(=O)c2c(nc(Sc3ncnn3CC(=O)N3CCOCC3)n2C)n(C)c1=O` was > 195 µM (not active)
